Biological target: UniProt:P9WMH1
Sequence (P9WMH1 whole entry, looked up): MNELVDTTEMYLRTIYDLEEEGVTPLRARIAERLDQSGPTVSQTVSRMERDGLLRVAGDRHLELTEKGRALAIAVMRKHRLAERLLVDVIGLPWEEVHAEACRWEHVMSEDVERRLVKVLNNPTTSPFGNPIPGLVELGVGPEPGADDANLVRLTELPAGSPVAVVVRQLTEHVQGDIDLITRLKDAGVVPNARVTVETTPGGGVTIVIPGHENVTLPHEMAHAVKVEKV
Assay: biochemical
Details: EMSA, same values given in µM; read-out: IC50
For each record, check the reported IC50: if it is below 40 µM write yes, else write no.

1. O=C1N[C@H]2CCCC[C@@H]2C(=O)N1OS(=O)(=O)c1ccccc1; no
2. O=C(O)C1(Cc2ccc(O)c(O)c2)NCCS1 (stereo not drawn); yes
3. Cc1ccc(C2=Nc3c(c(C)nn3-c3ccccc3)N=C(C(=O)O)C2)cc1; yes
4. Nc1ccc(-c2nc3ccccc3s2)cc1S(=O)(=O)O [IS-32]; no
5. O=S(=O)(Nc1ccc(Cl)cc1NS(=O)(=O)c1ccccc1)c1ccccc1; no
6. COc1ccc(-c2nc3ccccc3s2)cc1S(=O)(=O)O; no
7. O=S(=O)(O)c1ccc(O)c(/N=N/c2ccc(O)cc2O)c1 [IS-12]; yes
8. Oc1ccc(/C=N\c2ccccc2/N=C\c2ccc(O)c(O)c2)cc1O; no
9. NC(Cc1c[nH]c2cc(OCc3ccccc3)ccc12)C(=O)O (stereo not drawn); no
